Measured values drawn from patent US20240239875A1 for this set.

- target or test system: SARS-CoV-2 prefusion stabilized trimer protein (WIV02 isolate spike protein) (UniProt P0DTC2 14-1213)
- assay overview: ELISA
observable: EC50 (pM)
Answers are plain numbers, in pM.

As a guide, the following entries are already answered.
binder | EC50 (pM)
7-D7-A (antibody, V domains shown) VH: QVQLKESGPGLVAPSQSLSITCTVSGFSLTSYAISWVRQPPGKGLEWLGVIWPGGGTNYNSALKSRLSISKDNSKSQVFLKMNSLQTDDTAKYYCARTGYYFDYWGQGTTLTVSS VL: QLILTQSPAIMSASPGEKVTMTCSASLSVNYMYWFQQKPGTSPKRWIHDTSKLASGVPARFSGSGSGTSYSLTISSMEAEDAATYYCQQWSSNPPMYTFGGGTKLEIK | 720
8-H5-A (antibody, V domains shown) VH: QVTLKESGPGILQSSQTLSLTCSLSGFSLSTSGMGVSWVRQPSGKGLEWLAHIYWDDDKRYTPSLKSRLTISTDSSRKQVFLKITSVDTADTATYYCARRDLHDYDGWFAYWGQGTLVTVSA VL: DIVMTQSQKFMSTAVGDRVSVTCKASQNVGTNVAWYQQKPGQSPKALIYSASFRYSGVPDRFSGSGSGTDFTLTISNVQSEDLAEYFCQQYNSYPLTFGSGTKLEIK | 80
3-E13-A (antibody, V domains shown) VH: EVQLQQSGPELVKPGASVKMSCKASGYTFTDYNIHWVKQSHGKSLEWIGYINPNNGGTDYNQKFQGKATLTVNKSSSTAYMELRSLTSEDFAVYYCARGGFYGNYGAYYGMDFWGQGTSVTVSS VL: DIQMTQSPASLSASVGETVTITCRTSENIYSHLAWYQQTQGKSPQLLVYNAKTLAEGVPSRFSGSGSGTHFSLKINSLQPEDFGSYYCQHHYGIPPEFGGGTKLEIK | 80

Give measured EC50 for every item shown.
1. 6-O12-A (antibody, V domains shown) VH: QVQLQQPGTELVKPGASVKLSCKASGYTFTSYWMHWVKQRPGQGLEWIGNINPSNGGTNYNEKFRSKATLTVDKSSSTAYMQLSSLTSEDSAVYYCARLGWFLPLGSWGQGTTLTVSS VL: QIVLTQSPAIMSASLGEVITLTCSASSSVSYMHWYQQKSGTSPKLLIYSTSNLASGVPSRFSGSGSGTFYSLTISSVEAEDAADYYCHQWSGYMYTFGGGTKLEIK
2. 7-B10-A (antibody, V domains shown) VH: EVQLVESGGGLVQPKGSLKLSCAASGFTFNTYAMHWVRQAPGKGLEWVARIRSKSSNYARYYADSVKDRFTISRDESQSMLYLQMNNLKTEDTAMYYCVRDHDYYGSSYWFAYWGQGTLVTVSA VL: DVVMTQTPLSLPVSLGDQASISCSSSQSLVHNNGNTYLHWYLQKPGQSPKLLIYKVSNRFSGVPDRFSGSGSGTDFTLKISRVEAEDLGVYFCSQSTHVPWTFGGGTKLEIK

[390, 160]
